# TESTED_TARGET: Avi-KRAS WT (2-169) GTP/RAF1 RBD-3xFLAG (51-131) (Homo sapiens)
# Construct: Avi-KRAS WT (2-169)
# Sequence (P01116 2-169 isoform P01116-2): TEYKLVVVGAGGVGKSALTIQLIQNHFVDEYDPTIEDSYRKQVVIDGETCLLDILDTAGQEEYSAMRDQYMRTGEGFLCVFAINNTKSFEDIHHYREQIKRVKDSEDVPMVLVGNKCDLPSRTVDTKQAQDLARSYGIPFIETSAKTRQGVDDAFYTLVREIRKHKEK
# TEST: Raf1-KRAS WT-GTP disruption HTRF assay (Biological Example 3)
# Type: binding
# CONDITION_CONTEXT: KRAS WT, GTP-loaded
pIC50: −log10 of the molar value.
Please respond with reported pIC50 for every item in the list.

Field: pIC50 (Avi-KRAS WT (2-169) GTP/RAF1 RBD-3xFLAG (51-131) (Homo sapiens)). Entry: CCN(c1nc(OCC23CCCN2CC(F)C3)nc2c(F)c(-c3ccc(F)c4sc(N)c(C#N)c34)c(C(F)(F)F)cc12)C1CCN(C(=O)c2cnc(C#N)s2)C1 (stereo not shown) [Compound 960]
5.00 to 6.00

Reported pIC50 for Avi-KRAS WT (2-169) GTP/RAF1 RBD-3xFLAG (51-131) (Homo sapiens), given CCN(c1nc(OC[C@@]23CCCN2C[C@H](F)C3)nc2c(F)c(-c3ccc(F)c4sc(N)c(C#N)c34)c(C(F)(F)F)cc12)[C@@H]1C[C@H](C)N(C(C)=O)C1 (atropisomer, axis not shown) [Compound 534] ?
6.00 to 7.00

Quick check: pIC50 on Avi-KRAS WT (2-169) GTP/RAF1 RBD-3xFLAG (51-131) (Homo sapiens), item CCN(c1nc(OC[C@@]23CCCN2C[C@H](F)C3)nc2c(F)c(-c3ccc(F)c4sc(N)c(C#N)c34)c(C(F)(F)F)cc12)[C@H]1C[C@H](C)N(C(=O)c2coc(C)n2)C1 (atropisomer, axis not shown) [Compound 915] ?
6.00 to 7.00

Enter reported pIC50 observed with Avi-KRAS WT (2-169) GTP/RAF1 RBD-3xFLAG (51-131) (Homo sapiens) for CCN(c1nc(OC[C@@]23CCCN2C[C@H](F)C3)nc2c(F)c(-c3ccc(F)c4sc(N)c(C#N)c34)c(C(F)(F)F)cc12)[C@@H]1CCN2C(=O)OC[C@H]12 (atropisomer, axis not shown) [Compound 941]
5.00 to 6.00

Lookup: pIC50 / Avi-KRAS WT (2-169) GTP/RAF1 RBD-3xFLAG (51-131) (Homo sapiens) / CN(Cc1ccccn1)c1nc(OC[C@@]23CCCN2C[C@H](F)C3)nc2c(F)c(-c3ccc(F)c4sc(N)c(C#N)c34)c(C(F)(F)F)cc12 (atropisomer, axis not shown) [Compound 865]
5.00 to 6.00

pIC50 of CCN(c1nc(OC[C@@]23CCCN2C[C@H](F)C3)nc2c(F)c(-c3ccc(F)c4sc(N)c(C#N)c34)c(C(F)(F)F)cc12)[C@@H]1CC(=O)N(C2CC2)C1 (atropisomer, axis not shown) [Compound 703] on Avi-KRAS WT (2-169) GTP/RAF1 RBD-3xFLAG (51-131) (Homo sapiens)?
5.00 to 6.00

Fill in the recorded pIC50 for this molecule, with Avi-KRAS WT (2-169) GTP/RAF1 RBD-3xFLAG (51-131) (Homo sapiens) as test system: CCN(c1nc(OC[C@@]23CCCN2C[C@H](F)C3)nc2c(F)c(-c3ccc(F)c4sc(N)c(C#N)c34)c(C(F)(F)F)cc12)[C@H]1CCCOC1 (atropisomer, axis not shown) [Compound 965]
6.00 to 7.00

Could you share what pIC50 was measured for Cc1c(C(=O)N2CCOCC2)nn2c1CN(c1nc(OCC34CCCN3CC(F)C4)nc3c(F)c(-c4ccc(F)c5sc(N)c(C#N)c45)c(C(F)(F)F)cc13)CC2 (stereo not shown) [Compound 741] , tested on Avi-KRAS WT (2-169) GTP/RAF1 RBD-3xFLAG (51-131) (Homo sapiens)?
6.00 to 7.00

What measured pIC50 is associated with CCN(c1nc(OC[C@@]23CCCN2C[C@H](F)C3)nc2c(F)c(-c3ccc(F)c4sc(N)c(C#N)c34)c(C(F)(F)F)cc12)[C@H]1C[C@H](C)N(C(=O)N2CC(OC)C2)C1 (atropisomer, axis not shown) [Compound 764] on Avi-KRAS WT (2-169) GTP/RAF1 RBD-3xFLAG (51-131) (Homo sapiens)?
6.00 to 7.00

Lab note: need pIC50 with Avi-KRAS WT (2-169) GTP/RAF1 RBD-3xFLAG (51-131) (Homo sapiens) for entry CCN(c1nc(OC[C@@]23CCCN2C[C@H](F)C3)nc2c(F)c(-c3ccc(F)c4sc(N)c(C#N)c34)c(C(F)(F)F)cc12)[C@H]1CCN(C(=O)[C@@H]2C[C@@H]2F)[C@@H]1C (atropisomer, axis not shown) [Compound 889] , please look it up.
6.00 to 7.00

Form entry - test system: Avi-KRAS WT (2-169) GTP/RAF1 RBD-3xFLAG (51-131) (Homo sapiens); read-out: pIC50; molecule: CCN(c1nc(OC[C@@]23CCCN2C[C@H](F)C3)nc2c(F)c(-c3ccc(F)c4sc(N)c(C#N)c34)c(C(F)(F)F)cc12)[C@H]1CC[C@@](C)(C(=O)N(C)C)C1 (atropisomer, axis not shown) [Compound 873]
6.00 to 7.00

What reported pIC50 corresponds to CN(Cc1ccon1)c1nc(OC[C@@]23CCCN2C[C@H](F)C3)nc2c(F)c(-c3ccc(F)c4sc(N)c(C#N)c34)c(C(F)(F)F)cc12 (atropisomer, axis not shown) [Compound 856] on Avi-KRAS WT (2-169) GTP/RAF1 RBD-3xFLAG (51-131) (Homo sapiens)?
5.00 to 6.00

API: value(readout=pIC50, system=Avi-KRAS WT (2-169) GTP/RAF1 RBD-3xFLAG (51-131) (Homo sapiens)) for record CCN(c1nc(OC[C@@]23CCCN2C[C@H](F)C3)nc2c(F)c(-c3ccc(F)c4sc(N)c(C#N)c34)c(C(F)(F)F)cc12)[C@H]1CCN(C(=O)[C@H]2C[C@@H](F)C2)C1 (atropisomer, axis not shown) [Compound 842]
6.00 to 7.00

* * *

# TESTED_TARGET: Avi-KRAS WT (1-169) GppNHp/RAF1 RBD-3xFLAG (52-151) (Homo sapiens)
# Construct: Avi-KRAS WT (1-169)
# Sequence (P01116 1-169 isoform P01116-2): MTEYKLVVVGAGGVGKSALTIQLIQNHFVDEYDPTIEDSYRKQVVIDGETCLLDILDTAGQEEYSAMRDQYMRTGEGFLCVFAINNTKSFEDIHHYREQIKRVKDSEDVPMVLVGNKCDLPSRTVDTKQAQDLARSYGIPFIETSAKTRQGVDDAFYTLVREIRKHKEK
# TEST: Raf1-KRAS WT-GppNHP disruption HTRF assay (Biological Example 1)
# Type: binding
# CONDITION_CONTEXT: KRAS WT-GppNHp/RAF1 RBD HTRF
PROPERTY_NAME: IC50

Fill in: IC50 of `CN(C)C(=O)c1nn2c(c1Cl)CN(c1nc(OC[C@@]34CCCN3C[C@H](F)C4)nc3c(F)c(-c4ccc(F)c5sc(N)c(C#N)c45)c(C(F)(F)F)cc13)CC2` is ___
0.1 to 1 µM

Item `C[C@H]1[C@H](N(C)c2nc(OC[C@@]34CCCN3C[C@H](F)C4)nc3c(F)c(-c4ccc(F)c5sc(N)c(C#N)c45)c(C(F)(F)F)cc23)CCN1C(=O)C1CC1` has what recorded IC50?
0.1 to 1 µM

Please give the measured IC50 for this compound: CCN(c1nc(OC[C@@]23CCCN2C[C@H](F)C3)nc2c(F)c(-c3ccc(F)c4sc(N)c(C#N)c34)c(C(F)(F)F)cc12)[C@@H]1C[C@@H](C)N(C(=O)OC)C1 (atropisomer, axis not shown)
0.1 to 1 µM

State the recorded IC50 for this entry: CCN(c1nc(OC[C@@]23CCCN2C[C@H](F)C3)nc2c(F)c(-c3ccc(F)c4sc(N)c(C#N)c34)c(C(F)(F)F)cc12)[C@H]1CCN(C(=O)c2ccno2)C1 (atropisomer, axis not shown)
< 0.1 µM

Could you share which IC50 value was measured for `CCC(=O)N1C[C@@H](N(C)c2nc(OC[C@@]34CCCN3C[C@H](F)C4)nc3c(F)c(-c4ccc(F)c5sc(N)c(C#N)c45)c(C(F)(F)F)cc23)C[C@@H]1C` ?
0.1 to 1 µM

* * *

# TESTED_TARGET: Avi-KRAS G12C (2-169) GTP/RAF1 RBD-3xFLAG (51-131) (Homo sapiens, UniProt P01116, G12C)
# Construct: Avi-KRAS G12C (2-169)
# Sequence (P01116 2-169 isoform P01116-2 G12C): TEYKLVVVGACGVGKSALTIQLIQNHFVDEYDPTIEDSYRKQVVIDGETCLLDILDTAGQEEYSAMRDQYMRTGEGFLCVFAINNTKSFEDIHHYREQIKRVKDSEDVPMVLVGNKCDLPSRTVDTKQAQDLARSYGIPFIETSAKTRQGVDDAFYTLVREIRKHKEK
# TEST: Raf1-KRAS G12C-GTP disruption HTRF assay (Biological Example 3)
# Format: binding
# CONDITION_CONTEXT: KRAS G12C, GTP-loaded
Please provide measured IC50 for the entries that follow.

Dear colleague, I am looking for the recorded IC50 of the following compound: CCN(c1nc(OC[C@@]23CCCN2C[C@H](F)C3)nc2c(F)c(-c3ccc(F)c4sc(N)c(C#N)c34)c(C(F)(F)F)cc12)[C@H]1CCN(C(=O)C2C[C@H]2F)[C@@H]1C (stereo partly drawn) [Compound 874]
100 to 1000 nM

// returns reported IC50 for input CCN(c1nc(OC[C@@]23CCCN2C[C@H](F)C3)nc2c(F)c(-c3ccc(F)c4sc(N)c(C#N)c34)c(C(F)(F)F)cc12)[C@H]1C[C@@H](C)N(C(=O)C2CC2(F)F)C1 (stereo partly drawn) [Compound 877]
1000 to 10000 nM

// returns reported IC50 for input CCN(c1nc(OC[C@@]23CCCN2C[C@H](F)C3)nc2c(F)c(-c3ccc(F)c4sc(N)c(C#N)c34)c(C(F)(F)F)cc12)[C@H]1CCCOC1 (atropisomer, axis not shown) [Compound 965]
100 to 1000 nM

Which IC50 reading was recorded for the compound CCN(c1nc(OC[C@@]23CCCN2C[C@H](F)C3)nc2c(F)c(-c3ccc(F)c4sc(N)c(C#N)c34)c(C(F)(F)F)cc12)[C@H]1CCN(C(=O)c2coc(C)n2)[C@@H]1C (atropisomer, axis not shown) [Compound 899] ?
100 to 1000 nM

Any idea what its IC50 is? The compound is C[C@@H]1[C@H](N(C)c2nc(OC[C@@]34CCCN3C[C@H](F)C4)nc3c(F)c(-c4ccc(F)c5sc(N)c(C#N)c45)c(C(F)(F)F)cc23)CCN1C(=O)C1CC1 (atropisomer, axis not shown) [Compound 333]
100 to 1000 nM

Reported IC50 for CCN(c1nc(OC[C@@]23CCCN2C[C@H](F)C3)nc2c(F)c(-c3ccc(F)c4sc(N)c(C#N)c34)c(C(F)(F)F)cc12)[C@@H]1CC(=O)N(C2CC2)C1 (atropisomer, axis not shown) [Compound 703] : what is it?
1000 to 10000 nM

What measured IC50 goes with CN(Cc1ccccn1)c1nc(OC[C@@]23CCCN2C[C@H](F)C3)nc2c(F)c(-c3ccc(F)c4sc(N)c(C#N)c34)c(C(F)(F)F)cc12 (atropisomer, axis not shown) [Compound 865] ?
1000 to 10000 nM

Fill in the blank: the reported IC50 of CCN(c1nc(OC[C@@]23CCCN2C[C@H](F)C3)nc2c(F)c(-c3ccc(F)c4sc(N)c(C#N)c34)c(C(F)(F)F)cc12)[C@H]1CC[C@](C)(C(=O)N(C)C)C1 (atropisomer, axis not shown) [Compound 894] is ____.
1000 to 10000 nM

Entry CN(c1nc(OC[C@@]23CCCN2C[C@H](F)C3)nc2c(F)c(-c3ccc(F)c4sc(N)c(C#N)c34)c(C(F)(F)F)cc12)[C@H]1CC(=O)N2CCC[C@H]12 (atropisomer, axis not shown) [Compound 934] : reported IC50 = ?
100 to 1000 nM

Origin of the recorded values: patent US20260042764A1
